composite z-score reference
procedure details: probe aNog binding to arrayed compounds – biochemical, biotinylated probe, 635/667 nm fluorescence, primary screen (AID 1115);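 also: probe is biotinylated aNog protein used at 0.15 µg/mL for 1 h at 4 C; z-score combines 667 nm fluorescence of each spot with its signal to noise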
condition description: small-molecule microarray, higher = more signal
Give the figure by itself; no unit, no explanation.

For orientation, consider the following solved cases.
O=C1O[C@@H](c2ccccc2)[C@@H](c2ccccc2)N2[C@@H](c3ccccc3OCCO)[C@]3(C(=O)Nc4ccc(C#CC5(O)CCCCCC5)cc43)[C@@H](C(=O)NC[C@H](O)c3ccccc3)[C@H]12: 1.86
[N-]=[N+]=NCc1ccccc1C[C@@]1(C(=O)NCc2ccccc2)N=C(c2ccc(OCCCO)cc2)O[C@@H]1c1ccccc1CN=[N+]=[N-]: 1.88
COCCOC(=O)N1C(=O)[C@@]2(c3cc(C#CCCO)ccc31)[C@H](c1ccc(O)cc1)N1[C@H](c3ccccc3)[C@H](c3ccccc3)OC(=O)[C@H]1[C@@H]2C(=O)N1CCCCCCC1: -0.295

Ask | Which value of composite z-score has been reported for `CCOC(=O)C1=CC[C@@H](c2cccc(Cl)c2)N(S(=O)(=O)c2ccc(C)cc2)[C@H]1c1ccc(C#N)cc1` in the records?
Reply | 0.978

Ask | What measured composite z-score goes with O=C1OCCC/C=C\[C@H]2OC34C=CCN(CCN5CCOCC5)C(=O)[C@H]3N(CCO)C(=O)[C@@H]4C12 (some centres not stated) ?
Reply | 0

Ask | For the compound `COC(=O)c1nc2oc1CC[C@@H](CO)NC(=O)N(C)Cc1cn(nn1)C[C@H](Cc1ccccc1)NC2=O` , what composite z-score is on record?
Reply | 0.582

Ask | composite z-score for `CC(C)N1C(=O)c2ccccc2[C@](C)(C(=O)NCCCN(C)C)[C@@H]1c1ccc(CO)cc1` ?
Reply | -0.546

* * *

Test system: Human papillomavirus type 1a protein E7 (residues 44-93)
procedure details: small molecules binding HPV E7 44-93 – biochemical, small-molecule microarray, residues 44-93, 635 nm fluorescence, primary screen (AID 1108);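 also: E7 fragment applied at 1 µg/mL in TBST for 1 h at 4 C; score combines spot fluorescence with its signal to noise ratio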
condition description: fluorescence 635 nm, higher = more signal
Note to self: values exactly at 0.7 are TRUE. So composite z-score at or above 0.7 is TRUE, below is FALSE.

CCOC1=C2C(c3ccc(C)cc3)N(S(=O)(=O)c3ccc(C)cc3)CC2n2c(=O)n(-c3ccccc3)c(=O)n2C1 (stereo not drawn): TRUE
CCCCCCC#C[Si](O[C@H](c1ccccc1)c1cn([C@H](C)c2ccccc2)nn1)(C(C)C)C(C)C: FALSE

Ask | Textbook exercise: given the entry `[N-]=[N+]=Nc1ccccc1[C@@H]1OC(c2ccc(OCCCO)cc2)=N[C@]1(CCS(=O)(=O)c1ccccc1)C(=O)O` , state whether its composite z-score is greater than or equal to 0.7.
Reply | TRUE

Ask | Please tell me: is the compound `CC(C)(C)OC(=O)CC[C@@]1(C(=O)N2CCOCC2)N=C(c2ccc(OCCCO)cc2)O[C@@H]1c1ccccc1N=[N+]=[N-]` at or over 0.7 in terms of composite z-score?
Reply | TRUE

* * *

procedure details: viability profiling in MM1S myeloma cells – cell-based, resazurin fluorescence, basal, 24 h, PK04 Diversity Set, profiling panel (AID 1174);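 also: MM1S multiple myeloma cell line; test concentration not given here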
condition description: higher = more signal, called active from +8 up or from −8 down
Activity calls are given as the source filed them.
Here the recorded z-score is given for each entry.

A selection of reference data follows.
[N-]=[N+]=NCc1ccccc1C[C@@]1(C(=O)NCc2ccccc2)N=C(c2ccc(OCCCO)cc2)O[C@@H]1c1ccccc1CN=[N+]=[N-]: -0.709 (inactive)
C=CCC(OC(C)=O)[C@@H]1[C@@H](N(Cc2ccc(-c3ccccc3)cc2)C(=O)c2ccc(C)cc2)c2cc(OCCCO)ccc2N1C(=O)c1ccc2ccccc2n1 (some centres not stated): 1.3 (inactive)
CC(C)CNC(=O)[C@@]1(C)c2ccccc2C(=O)N(C(C)C)[C@H]1c1ccc(CO)cc1: -0.434 (inactive)
O=C1OCCC=C[C@H]2OC34C=CCN(c5ccc6ccccc6c5)C(=O)[C@H]3N(CCCCCCO)C(=O)[C@@H]4C12 (some centres not stated): -0.0449 (inactive)
C=C(C(=O)CC[C@@H](OC(=O)c1cccnc1)c1ccc(OCCO)cc1)C(C)C: -0.446 (inactive)
COc1ccc([Si](C)(C)[C@@H]2[C@@H](CCO)O[C@]3(C(=O)N(Cc4cccc(N5CCCCC5=O)c4)c4ccccc43)[C@H]2C)cc1: -1.93 (inactive)

Ask | Could you tell me which z-score is on file for C=CCC(OC(C)=O)[C@@H]1[C@@H](N(Cc2ccc(-c3cccc(C(F)(F)F)c3)o2)C(=O)Cc2ccc(OC)cc2)c2cc(OCCCO)ccc2N1C(=O)Cc1ccc(OC)cc1 (some centres not stated) ?
Reply | 1.08 (inactive)

* * *

tested on: NADPH oxidase 5 (Homo sapiens)
procedure details: compounds shifting NOX5 Amplex Red fluorescence – cell-based, HEK293-NOX5, NOX inhibitor project, primary screen (AID 1161)
condition description: HEK293-NOX5, ionomycin, 45 min, higher = more signal
z-score by entry:
// return just the number, without any unit appended

Please review the following examples before continuing.
Cc1ccccc1/C=C/C=O: 0.45
CC(C)(C)OC(=O)CC[C@@]1(C(=O)NCC(O)CO)N=C(c2ccc(OCCCO)cc2)O[C@@H]1c1ccccc1 (some centres undefined): 1.45
NC(=O)NCC#Cc1ccc2c(c1)[C@]1(C(=O)N2)[C@H](C(=O)NC[C@H](O)c2ccccc2)[C@H]2C(=O)O[C@H](c3ccccc3)[C@H](c3ccccc3)N2[C@@H]1c1ccccc1OCCO: -1.81

Now examine the next entry.
Ask | Requested read-out z-score, target or system NADPH oxidase 5 (Homo sapiens), entry Cc1cc(C)c(C(O)C2C=CC3C(=O)NC(=O)C3N2Nc2ccccn2)c(C)c1 (centres undefined)
Reply | -2.12

* * *

Listing of recorded composite z-score by entry.
procedure details: small molecules captured by biotinylated probe aFST – biochemical, small-molecule microarray, fluorescence 635/667, stem cell growth factor project, primary screen (AID 1086);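 also: score merges 667 nm fluorescence with signal-to-noise of each printed compound spot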
condition description: higher = more signal
Write the number on its own, no unit after it.

CC1CC/C=C\[C@H]2OC34C=CCN(Cn5nnc6ccccc65)C(=O)[C@H]3N(CCCO)C(=O)[C@@H]4C2C(=O)O1 (some centres undefined): -0.474
COC(=O)[C@@]1(Cc2ccccc2)[C@H]2c3cc(C(=O)N(C)C)n(Cc4cc(F)c(F)c(F)c4)c3C[C@H]2CN1C(=O)c1ccccc1: 0.437
CCOC1=C2C(c3ccc(C)cc3)N(S(=O)(=O)c3ccc(C)cc3)CC2n2c(=O)n(-c3ccccc3)c(=O)n2C1 (centres undefined): 0.701
C=C(COC)/C(=C/C[C@H](OC(C)=O)c1ccccc1OCCO)c1cnc2ccccc2c1: 0.101
CC(=O)n1cc(C(O)C2C=CC3C(=O)N(c4ccccc4)C(=O)C3N2Nc2ccc(C#N)cc2)c2ccccc21 (centres undefined): 0.296

Ask | Give its composite z-score value. Item: `[N-]=[N+]=NCc1ccccc1C[C@@]1(C(=O)NCc2ccccc2)N=C(c2ccc(OCCCO)cc2)O[C@@H]1c1ccccc1CN=[N+]=[N-]`
Reply | 0.803

Ask | // lookup composite z-score for `CN(C)CCCC[C@@H]1NC(=O)[C@H]2C[C@@H](C(=O)NCCCCCNC(=O)CS)[C@@H](c3ccc(O)cc3)N2C1=O`
Reply | -0.576

Ask | Looking for the measured composite z-score of O=C1OCCC/C=C\[C@H]2OC34C=CCN(Cn5nnc6ccccc65)C(=O)[C@H]3N(CCCO)C(=O)[C@@H]4C12 (some centres undefined) , can you help?
Reply | -1.28

Ask | What composite z-score value was documented for this molecule, O=C1OCCC/C=C\[C@H]2OC34C=CCN(CCN5CCOCC5)C(=O)[C@H]3N(CCO)C(=O)[C@@H]4C12 (some centres undefined) ?
Reply | -0.382

Ask | Which composite z-score reading was recorded for the molecule Cn1c2c(c3ccccc31)C(=O)C1NC2C=CC1(C)C(=O)OCc1ccccc1 (centres undefined) ?
Reply | -0.478

Ask | Which composite z-score value is on record for `O=C1O[C@H](c2ccccc2)[C@H](c2ccccc2)N2[C@H]1[C@@H](C(=O)Nc1nc3ccccc3s1)[C@]1(C(=O)Nc3ccc(C#CC4=CCCCC4)cc31)[C@H]2c1ccc(OCCO)cc1` ?
Reply | 1.21

Ask | What does the record list as composite z-score for `O=c1cccc(-c2cccc3ccccc23)o1` ?
Reply | 0.0143

Ask | Data request, read-out composite z-score, for `CC[C@@H]1C=C(C(=O)O)[C@H](c2ccc(C(C)C)cc2)N1S(=O)(=O)c1ccc(C)cc1`
Reply | 1.64

Ask | Consider the molecule `COCCOC(=O)N1C(=O)[C@@]2(c3cc(C#CCC(C(=O)OC)C(=O)OC)ccc31)[C@H](c1ccccc1OCCO)N1[C@H](c3ccccc3)[C@H](c3ccccc3)OC(=O)[C@H]1[C@@H]2C(=O)Nc1nc2ccccc2s1` and give its measured composite z-score.
Reply | 0.417

Ask | # lookup: composite z-score of `C#C[C@H](O[Si](C#CCCCCCC)(C(C)C)C(C)C)c1ccccc1`
Reply | -0.748

Ask | Would you mind telling me what composite z-score value was observed for `COC(=O)[C@@]1(Cc2ccccc2)[C@H]2c3cc(C(=O)N(C)C)n(Cc4ccccc4)c3C[C@H]2CN1C(=O)c1ccccc1` ?
Reply | 0.856

Ask | Fill in: composite z-score of `C=C(COC)C(=O)CC[C@H](OC(=O)c1cccnc1)c1ccccc1OCCO` is ___
Reply | 0.437

Ask | I'd like to know its composite z-score. The molecule in question is `O=S(=O)(NCCCO)c1ccc(Br)cc1`
Reply | 0.14

Ask | Endpoint output: composite z-score of `O=C1O[C@H](c2ccccc2)[C@H](c2ccccc2)N2[C@H]1[C@@H](C(=O)NC[C@H](O)c1ccccc1)[C@]1(C(=O)Nc3ccc(C#CC4=CCCCC4)cc31)[C@H]2c1ccc(O)cc1` . Value?
Reply | 0.826

Ask | // composite z-score lookup, key: `COC(=O)c1c2oc(c1C(=O)OC)C(=O)N[C@H](Cc1ccccc1)Cn1nncc1C1(CCCCC1)NC(=O)N[C@H](CO)CC2`
Reply | 0.233

Ask | Which measured composite z-score value corresponds to `CC(C)[Si]1(C(C)C)O[C@@H](c2ccccc2)c2cc(-c3ccc(-c4ccc(Cl)c(Cl)c4)o3)nc(CCc3ccccc3)c21` ?
Reply | -0.363

FYI, the data here is from PubChem BioAssay.
